B1: library; numbered along this chain (parent)
chain: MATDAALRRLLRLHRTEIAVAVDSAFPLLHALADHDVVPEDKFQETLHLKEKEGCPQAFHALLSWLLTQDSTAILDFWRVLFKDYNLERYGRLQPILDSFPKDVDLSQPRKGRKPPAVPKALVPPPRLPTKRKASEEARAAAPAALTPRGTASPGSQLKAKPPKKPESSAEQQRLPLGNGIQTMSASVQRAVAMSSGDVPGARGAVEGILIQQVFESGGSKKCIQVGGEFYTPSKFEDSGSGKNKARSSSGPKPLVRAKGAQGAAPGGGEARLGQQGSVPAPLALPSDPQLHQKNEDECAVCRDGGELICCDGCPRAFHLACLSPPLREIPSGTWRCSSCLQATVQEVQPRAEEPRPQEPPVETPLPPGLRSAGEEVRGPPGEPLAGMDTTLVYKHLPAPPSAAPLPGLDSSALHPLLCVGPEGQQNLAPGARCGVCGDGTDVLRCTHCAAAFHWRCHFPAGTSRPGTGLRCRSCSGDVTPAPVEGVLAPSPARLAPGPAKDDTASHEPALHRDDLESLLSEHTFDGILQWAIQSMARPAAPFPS

# Variants of: B1
# assay overview: AIRE transcriptional activation functional score (insulin promoter-GFP; nonsense median 0, synonymous median 1) (normalised score); higher = higher AIRE activity (more reporter activation)
# setup conditions: with insulin promoter-GFP reporter in HEK293
# AIRE transcriptional activation functional score values compiled below

sequence change: P129H
test value: -0.142

sequence change: S248R
test value: 0.215

sequence change: T72P
test value: 0.606

Consider the variant shown here: A265W What is its recorded AIRE transcriptional activation functional score?
0.598

Consider the variant shown here: S491R What is its recorded AIRE transcriptional activation functional score?
0.586
